# System: UACC-62
# procedureDetails: NCI tumour cell line growth inhibition, 48 h
Calls of active or inactive are those of the source. Rule as the data show it: active = GI50 up to about 1.1 µM and inactive = higher.
Choose the fitting class; nothing outside t = active, f = inactive is accepted.

Worked cases, answers included:
>  <compound>
COC(=O)[C@@]12CCCC(=O)[C@@H]1[C@H]1CCCC[C@H]12

>  <class>
f

$$$$
>  <compound>
C#CCn1ncc2c(SC)ncnc21

>  <class>
f

$$$$
>  <compound>
O=c1c2ccccc2nc2sc(/N=C/C=C/c3ccccc3)nn12

>  <class>
f

$$$$
>  <compound>
NC1=NC(c2ccccc2)CC(c2cc(Cl)ccc2O)=N1 (stereo unspecified)

>  <class>
f

$$$$
>  <compound>
N#C/C(=C1\SC(/N=N/c2ccc(Cl)cc2)C(=O)N1c1ccccc1)c1nc2ccccc2[nH]1 (stereo unspecified)

>  <class>
f

$$$$

Now let's try a different one.
# input Dear all, I need the recorded test outcome for COc1cc2c(cc1OC)[C@H]1CN3CCC[C@H]3C=C1c1ccc(OC)c(O)c1-2 , thank you.
# output t

----------
# System: EKVX
# procedureDetails: NCI tumour cell line growth inhibition, 48 h
The source made the active and inactive calls. Rule as the data show it: active = GI50 up to about 1.1 µM and inactive = higher.
Exercise: for every item that follows, state its recorded GI50.

>  <molecule>
C=C(CO)C(=O)OC1CC(=C)C2CC(O)C(C)C2C2OC(=O)C(=C)C12 (configuration not stated)

>  <systemTested>
EKVX

>  <GI50>
40.9 µM (inactive)

$$$$

Provide GI50 for all items below, preserving their order.
1. Cn1c(CBr)nc2c1C(=O)c1nc(CBr)[nH]c(=O)c1C2=O
2. COC(=O)C1=C(O)C(C(=O)OC)[C@]2(O)[C@H](C(=O)OC)[C@H]1C[C@@H](c1ccc(C(F)(F)F)cc1)[C@H]2C(=O)OC (some centres not stated)
3. CCOC(=O)c1c(OCC)[nH]c(=O)c(C(c2cccs2)c2c(O)c(C(=O)OCC)c(OCC)[nH]c2=O)c1O
4. CC(C)N1C=[N+](C(C)C)CC1
5. O=C(O)CCc1ccc2c(c1)C(=O)CC2
6. O=C1N=C2N=C(c3ccc(Cl)cc3)N(c3ccc(Cl)cc3)N2Sc2ccccc21

# output
["> 100 µM (inactive)", "10.6 µM (inactive)", "11.5 µM (inactive)", "> 100 µM (inactive)", "> 100 µM (inactive)", "> 100 µM (inactive)"]

Provide GI50 for all items below, preserving their order.
1. COc1cc2c(cc1O)CCN(C)[C@H]2Cc1ccc(Oc2c(O)c(OC)cc3c2C[C@H]2c4c(c(OC)c(OC)c(OC)c4-3)CCN2C)cc1 [THALIFABERIDINE]
2. CC#CC1C(OC(=O)c2ccccc2)CCCC1(CI)N=[N+]=[N-] (configuration not stated)
3. Cc1ccc(S(=O)(=O)N/N=C2\CC3C4CCC3C2C4)cc1 (configuration not stated)
4. COc1ccc(NC(=S)Nc2c(C)n(C)n(-c3ccccc3)c2=O)cc1

# output
1. 5.92 µM (inactive)
2. 55.1 µM (inactive)
3. > 100 µM (inactive)
4. > 100 µM (inactive)

# input Using the record for Cc1nc(C(N)=S)sc1/C(CC(=O)C(=O)Nc1cccc2ccc(O)cc12)=N\NC(=O)c1ccncc1 , report its GI50.
# output > 100 µM (inactive)

----------
# Tested on: CCRF-CEM
# procedureDetails: NCI tumour cell line growth inhibition, 48 h
Active and inactive are the calls of the source. Rule as the data show it: active = GI50 up to about 1.1 µM and inactive = higher.
readout: GI50

Examples with their reported GI50 follow.
>  <molecule>
COc1cc2c(cc1C1=NC(C)(C)CO1)OCO2

>  <systemTested>
CCRF-CEM

>  <testValue>
> 100 µM (inactive)

$$$$
>  <molecule>
C#CCN(N=O)C(=O)NCCCC(NC(C)=O)C(=O)NCc1ccccc1 (stereo unspecified)

>  <systemTested>
CCRF-CEM

>  <testValue>
11.3 µM (inactive)

$$$$
>  <molecule>
CN1/C(=C/C(=O)c2ccc(Cl)cc2)Nc2ccccc21

>  <systemTested>
CCRF-CEM

>  <testValue>
34.8 µM (inactive)

$$$$
>  <molecule>
COc1ccc(C(=O)c2nc3ccccc3nc2N2CCN(c3ccccc3)CC2)cc1OC

>  <systemTested>
CCRF-CEM

>  <testValue>
> 100 µM (inactive)

$$$$
>  <molecule>
c1ccc(CCN2CCN=C2Cc2ccccc2)cc1

>  <systemTested>
CCRF-CEM

>  <testValue>
37.3 µM (inactive)

$$$$

Provide GI50 for all items below, preserving their order.
1. COc1ccc(/C=C/C(=O)c2sc(Nc3ccc([N+](=O)[O-])cc3)nc2C)cc1
2. CC(C)N1C=[N+](C(C)C)CC1
3. FC(F)(F)c1cnc(N/N=C(/c2ccccc2)c2ccccn2)c(Cl)c1
4. Cc1[nH]c(=O)nc(NCCNCCO)c1C(=O)Nc1c2ccccc2nc2ccccc12
5. O=c1[nH]c2ccccc2c(=O)c2cc3ccccc3cc12
6. CC(C)(Br)C(=O)N1CCN(C(c2ccccc2)c2ccccc2)CC1

# output
1. 25.6 µM (inactive)
2. > 100 µM (inactive)
3. 2.4 µM (inactive)
4. > 100 µM (inactive)
5. 51.5 µM (inactive)
6. 49.2 µM (inactive)

----------
# Test system: SF-268
# procedureDetails: NCI tumour cell line growth inhibition, 48 h
Calls of active or inactive are those of the source. No stated cut-off is given here; in the data, active = GI50 up to about 1.1 µM and inactive = higher.
readout: GI50

>  <compound>
COc1ccc(N2C(=O)C3c4[nH]c5ccccc5c4C4CCCCCCCCCCC4C3C2=O)cc1 (stereo unspecified)

>  <testValue>
5.16 µM (inactive)

$$$$

Provide GI50 for all items below, preserving their order.
1. C=C1C(=O)O[C@H]2C[C@@H](C)[C@@H]3CC(=O)OC[C@@]3(C)CC12 (stereo partly specified)
2. Cc1c2ccccc2c(CO)c2cc(F)c3ccccc3c12
3. COC(=O)CCC(=O)NC1c2cccc3cccc(c23)Cn2c(=O)n(C)c(=O)n21 (stereo unspecified)

# output
1: 27.4 µM (inactive); 2: 24.5 µM (inactive); 3: > 100 µM (inactive)

----------
# Test system: SK-MEL-5
# procedureDetails: NCI tumour cell line growth inhibition, 48 h
The source made the active and inactive calls. Rule as the data show it: active = GI50 up to about 1.1 µM and inactive = higher.
Exercise: for every item that follows, state its recorded GI50.

Examples with their reported GI50 follow.
>  <molecule>
CC(=O)c1c(C)cc2cccc(OC3OC(CO)C(O)C(O)C3O)c2c1O.CC1OC(O)C(O)C(O)C1O (stereo not given)

>  <GI50>
> 100 µM (inactive)

$$$$
>  <molecule>
Cc1ccc2[nH]c3c(C)c4c(c(C)c3c2c1)CN(C)C=C4

>  <GI50>
1.38 µM (inactive)

$$$$
>  <molecule>
O=C(NCc1ccccc1)c1c(O)nc2ccccc2c1O

>  <GI50>
> 100 µM (inactive)

$$$$
>  <molecule>
C/C(=N\Nc1nc2ccccc2n1C)c1cnccn1

>  <GI50>
0.154 µM (active)

$$$$
>  <molecule>
CCOC(=O)c1ccc(NC(=O)O/N=C(/Cl)CC)cc1

>  <GI50>
16 µM (inactive)

$$$$

Provide GI50 for all items below, preserving their order.
1. COc1ccc(/C=C/C(=O)C(C)(C)C)cc1OC
2. C[N+]12CCN(c3ccccc31)c1ccccc12.[O-][Cl+3]([O-])([O-])[O-]
3. CCCCc1ccc(Nc2nc(Cl)c3ncn(COCCOC(C)=O)c3n2)cc1
4. O=C(O)C(Cc1cc(I)c(O)c(I)c1)C1CCCCC1 (stereo not given)
5. Clc1cc(OC23CC4CC(CC(C4)C2)C3)nc(Cl)n1

# output
54.1 µM (inactive)
2.29 µM (inactive)
16.7 µM (inactive)
22.4 µM (inactive)
38.8 µM (inactive)

----------
# Tested on: A549
# procedureDetails: NCI tumour cell line growth inhibition, 48 h
Active and inactive are the calls of the source. Cut-off read from the data, not from the text of the source: active = GI50 up to about 1.1 µM and inactive = higher.
readout: GI50

>  <compound>
CCCCOP1(=O)C=C(C)C(=C(Cl)Cl)C(C)=C1 (stereo not given)

>  <systemTested>
A549

>  <readout>
GI50

>  <testValue>
6.58 µM (inactive)

$$$$
>  <compound>
CCOC(=O)C(C(=O)OCC)C(=S)NC1OC(COC(C)=O)C(OC(C)=O)C(OC(C)=O)C1OC(C)=O (stereo not given)

>  <systemTested>
A549

>  <readout>
GI50

>  <testValue>
> 100 µM (inactive)

$$$$
>  <compound>
COc1ccccc1-n1nnc2c(N)nc(N)nc21

>  <systemTested>
A549

>  <readout>
GI50

>  <testValue>
> 100 µM (inactive)

$$$$
>  <compound>
Cc1ccc(C2=Nc3ccccc3NC(=O)C2)cc1

>  <systemTested>
A549

>  <readout>
GI50

>  <testValue>
> 100 µM (inactive)

$$$$
>  <compound>
CC(NC1=CC(=O)c2ncccc2C1=O)C(O)c1ccccc1 (stereo not given)

>  <systemTested>
A549

>  <readout>
GI50

>  <testValue>
3.03 µM (inactive)

$$$$

Provide GI50 for all items below, preserving their order.
1. Nc1nc(Cl)cc(NC23CC4CC(CC(C4)C2)C3)n1
2. O=c1c2ccccc2nc2sc(/N=C/C=C/c3ccccc3)nn12
3. CSc1nc(NC2OC(COC(C)=O)C(OC(C)=O)C(OC(C)=O)C2OC(C)=O)c2c(n1)OCC2=O (stereo not given)
4. Nc1nc(N)c(CCCCc2ccccc2)c(C=O)n1

# output
1: 98.6 µM (inactive); 2: > 100 µM (inactive); 3: > 100 µM (inactive); 4: 41.4 µM (inactive)

Provide GI50 for all items below, preserving their order.
1. CCOC(=O)c1cc2ncccc2c2ccccc12
2. O=C(O)c1nnsc1-c1ccc(-c2snnc2C(=O)O)cc1

# output
["> 100 µM (inactive)", "> 100 µM (inactive)"]

Provide GI50 for all items below, preserving their order.
1. COc1ccc(C(=O)/C=C2\C(=O)Nc3ccc(Br)cc32)cc1
2. c1coc(CNc2[nH]cnc3nncc2-3)c1
3. C#CCCCCC#Cc1ccccc1C(=O)OC
4. Cc1ccc(S(=O)(=O)NC(=O)C2S(=O)(=O)OCCOS2(=O)=O)cc1
5. O=c1[nH]nc(Cc2ccccc2)n1CCO
6. O=C(CSCC(=O)N/N=C\c1ccccc1F)N/N=C\c1ccccc1F
7. COc1nc(N)c(/N=C/C(OC(C)=O)C(OC(C)=O)C(COC(C)=O)OC(C)=O)c(=O)n1C (stereo not given)
8. N=C(N)Nc1ccc(CC(N)C(=O)O)cc1 (stereo not given)

# output
1: 15.3 µM (inactive); 2: > 100 µM (inactive); 3: > 100 µM (inactive); 4: > 100 µM (inactive); 5: > 100 µM (inactive); 6: > 100 µM (inactive); 7: > 100 µM (inactive); 8: > 12.5 µM (inactive)

# input Using the record for CCOc1ccc(N/C(=C(/C(Cl)=C(/Cl)NCCN)[N+](=O)[O-])n2nnc3ccccc32)cc1 , report its GI50.
# output > 100 µM (inactive)
